- System: MV4;11 cells (FLT3-ITD homozygous)
- Test protocol: Cell proliferation/viability assay, MV4;11
- Format: cell-based
- Experimental context: Homo sapiens, 48 hr, ± SEM
Assay endpoint: IC50 (nM)
Number in nM, nothing else.

GET /values?readout=IC50&item= CC1NC(=O)c2c1c1c3ccccc3n(CCCN)c1c1[nH]c3ccccc3c21 (centres unmarked) 41

GET /values?readout=IC50&item= CO[C@@H]1[C@H](N(C)C(=O)c2ccccc2)C[C@H]2O[C@]1(C)n1c3ccccc3c3c4c(c5c6ccccc6n2c5c31)C(=O)NC4 [PKC412, N-benzoylstaurosporine, reference compound] 16

###

- Target or test system: FLT3 (Homo sapiens, UniProt P36888)
- Sequence (P36888 27-993): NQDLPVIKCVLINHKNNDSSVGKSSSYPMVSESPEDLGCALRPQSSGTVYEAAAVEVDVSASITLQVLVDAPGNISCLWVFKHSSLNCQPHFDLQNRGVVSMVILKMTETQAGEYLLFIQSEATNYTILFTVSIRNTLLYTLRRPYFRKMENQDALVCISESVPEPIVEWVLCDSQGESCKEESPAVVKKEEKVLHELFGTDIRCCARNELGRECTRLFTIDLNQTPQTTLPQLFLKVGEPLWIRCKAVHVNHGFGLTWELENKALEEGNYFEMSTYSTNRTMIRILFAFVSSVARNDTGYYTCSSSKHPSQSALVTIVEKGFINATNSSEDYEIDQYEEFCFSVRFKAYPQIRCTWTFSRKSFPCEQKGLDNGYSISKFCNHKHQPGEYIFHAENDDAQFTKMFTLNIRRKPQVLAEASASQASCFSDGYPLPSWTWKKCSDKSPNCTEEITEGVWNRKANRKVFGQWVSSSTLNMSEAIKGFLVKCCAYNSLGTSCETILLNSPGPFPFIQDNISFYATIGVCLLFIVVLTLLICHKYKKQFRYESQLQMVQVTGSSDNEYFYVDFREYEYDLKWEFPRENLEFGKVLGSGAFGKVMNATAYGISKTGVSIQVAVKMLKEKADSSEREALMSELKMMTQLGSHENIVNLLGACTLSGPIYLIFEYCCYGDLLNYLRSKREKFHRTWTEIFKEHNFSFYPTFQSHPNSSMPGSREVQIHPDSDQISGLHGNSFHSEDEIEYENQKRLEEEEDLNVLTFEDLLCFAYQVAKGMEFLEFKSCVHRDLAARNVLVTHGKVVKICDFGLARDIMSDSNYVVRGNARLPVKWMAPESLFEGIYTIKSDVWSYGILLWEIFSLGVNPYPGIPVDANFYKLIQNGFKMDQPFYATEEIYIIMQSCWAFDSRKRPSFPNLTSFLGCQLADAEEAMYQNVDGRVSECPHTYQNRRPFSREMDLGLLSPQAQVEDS
Assay endpoint: pIC50
# reply with the number alone; pIC50 is -log10 of concentration in mol/L

GET /values?readout=pIC50&item= `C[C@@H]1NC(=O)c2c1c1c3ccccc3n(CCCCN)c1c1[nH]c3ccccc3c21` 8.05

###

- Tested on: Ba/F3 FLT3 ITD + D698N
- Test protocol: Ba/F3 cell viability, FLT3 ITD + D698N
- Format: cell-based
- Experimental context: Mus musculus, Ba/F3, 48 hr, ± SEM
Assay endpoint: IC50 (nM)
Number in nM, nothing else.

GET /values?readout=IC50&item= CC1NC(=O)c2c1c1c3ccccc3n(CCCN)c1c1[nH]c3ccccc3c21 (stereo not shown) 174
